- Protocol description: modulation of TERT promoter-driven luciferase – cell-based, luciferase reporter, human, primary screen (AID 1259240)
- Test conditions: A2780 TERT promoter luciferase reporter, 16 h; at 20 µM, fold versus average of vehicle-only wells
Calls of active or inactive are those of the source. Cut-off read from the data, not from the text of the source: active = fold change mostly below about -2 (no sharp cut-off); inactive = mostly above about -1.8.
Respond with a class label; see True for active, False for inactive

Molecule	Discrete label
O=C(O)CN1C(=O)/C(=C/c2ccc(SCc3ccccc3)o2)SC1=S	False
Cc1ccc(N2CC(O)=C(c3nc4ccccc4c(=O)[nH]3)C2=N)cc1C	False

Problem: Recorded test call requested for O=C(Cc1ccc(NC2=NC3CS(=O)(=O)CC3S2)cc1)N1CCc2ccccc2C1 (stereo not given)
Solution: False

Problem: Recorded test call requested for "O=c1c2ccccc2nc(N2CCOCC2)n1Cc1ccccc1"
Solution: False

Problem: Recorded test call requested for "COc1ccccc1-c1c(C)nn2c(N(C)CCC#N)cc(C)nc12"
Solution: False

Problem: Recorded test call requested for "COc1ccc(-n2c(C)c(C(C)=O)c3cc(OCC(N)=O)ccc32)cc1"
Solution: False

Problem: Recorded test call requested for "Fc1ccc(Nc2nnc(Cc3ccncc3)c3ccccc23)cc1"
Solution: False

Problem: Recorded test call requested for "CCOC(=O)c1cc2cc(Cl)ccc2oc1=O"
Solution: False

Problem: Recorded test call requested for "O=C(c1ccc(CSCc2ccccc2F)o1)N1CCN(c2ccc(N3CCOCC3)nn2)CC1"
Solution: False

Problem: Recorded test call requested for "Cc1ccc2nc(NC3=NCN(Cc4ccco4)CN3)nc(C)c2c1"
Solution: False

Values compiled from PubChem BioAssay AID1259240.
